- Assay name: Maximum estimated dietary exposure to media ingredients per 100 g serving
- Measurement setup: assumption of complete transfer of media components to the finished product on a wt/wt basis
Counter-ions that a name gives are not always drawn.
Parameter measured: Maximum Estimated Exposure per 100 g serving (mg)
Response body: numeric value in mg, unit text excluded.

A selection of reference data follows.
Compound	Obs value
Cc1ncc(C[n+]2csc(CCO)c2C)c(N)n1 [THIAMINE-HCL]	18
O.O.O.O.O.O.O.O=S(=O)([O-])[O-].[Zn+2] [ZINC SULFATE-7H20]	15
Cc1c(C)c2c(c(C)c1O)CC[C@@](C)(CCC[C@H](C)CCC[C@H](C)CCCC(C)C)O2	1.6
O=C(O)CCCC[C@@H]1SC[C@@H]2NC(=O)N[C@@H]21	4
N[C@@H](CCC(=O)N[C@@H](CS)C(=O)NCC(=O)O)C(=O)O	36

Maximum Estimated Exposure per 100 g serving reported for this compound O.O=P([O-])(O)O.[Na+] [SODIUM PHOSPHATE MONOBASIC H20] : 1500

Maximum Estimated Exposure per 100 g serving reported for this compound O=C(O)CCC(=O)O : 200

Maximum Estimated Exposure per 100 g serving reported for this compound [Ca+2].[Cl-].[Cl-] [CALCIUM CHLORIDE (ANHY)] : 760

Maximum Estimated Exposure per 100 g serving reported for this compound O.O.O.O.O.O.O=C([O-])CCC(=O)[O-].[Na+].[Na+] [SODIUM SUCCINATE-2Na 6H20] : 40

Maximum Estimated Exposure per 100 g serving reported for this compound CC(=O)C(=O)[O-].[Na+] [SODIUM PYRUVATE] : 1000

Maximum Estimated Exposure per 100 g serving reported for this compound O=[Se]([O-])[O-].[Na+].[Na+] [SODIUM SELENITE (ANHY)] : 0.19

Maximum Estimated Exposure per 100 g serving reported for this compound Nc1nc2ncc(CNc3ccc(C(=O)N[C@@H](CCC(=O)O)C(=O)O)cc3)nc2c(=O)[nH]1 : 60

Maximum Estimated Exposure per 100 g serving reported for this compound O.O.O.O.O.O.O.O.O.O=[Si]([O-])[O-].[Na+].[Na+] [SODIUM METASILICATE-9H2O] : 1.6

====

- Assay name: Maximum estimated dietary exposure to media ingredients per 100 g serving
- Measurement setup: assumption of complete transfer of media components to the finished product on a wt/wt basis
Parameter measured: Maximum Estimated Exposure per 100 g serving (mg)
Response body: numeric value in mg, unit text excluded.

A selection of reference data follows.
Compound	Units label	Obs value
O.O=S(=O)([O-])[O-].[Mn+2] [MANGANESE SULFATE H2O]	mg	0.003
O=C1O[C@H]([C@@H](O)CO)C(O)=C1O	mg	2000
CCCCC/C=C\C/C=C\CCCCCCCC(=O)O	mg	1
NC(=O)c1cccnc1 [NIACINAMIDE (NICOTINAMIDE), NIACINAMIDE]	mg	25

Kindly review the next compound as well.
Maximum Estimated Exposure per 100 g serving reported for this compound O[C@H]1[C@H](O)[C@@H](O)[C@H](O)[C@@H](O)[C@H]1O : 430

====

- Assay name: Maximum estimated dietary exposure to media ingredients per 100 g serving
- Measurement setup: assumption of complete transfer of media components to the finished product on a wt/wt basis
Parameter measured: Maximum Estimated Exposure per 100 g serving (mg)
Response body: numeric value in mg, unit text excluded.

Compound	Obs value
CC(=O)Oc1c(C)c(C)c2c(c1C)CCC(C)(CCCC(C)CCCC(C)CCCC(C)C)O2 (racemic) [DL-ALPHA-TOCOPHEROL ACETATE]	8

Maximum Estimated Exposure per 100 g serving reported for this compound C[N+](C)(C)CCO.[Cl-] [CHOLINE CHLORIDE] : 52
